conditions: 298.15 K; 101.33 kPa; Liquid; Vibrating tube method
Give mass density for every item shown.
Numbers only, in kg/m3.

Name the reported mass density value associated with the compound CCCCn1cc[n+](CC)c1.CCOP(=O)([O-])OCC [1-butyl-3-ethyl-1H-imidazol-3-ium diethyl phosphate]
1083.21

Query COP(=O)([O-])OC.Cn1cc[n+](C)c1 [1,3-dimethylimidazolium dimethylphosphate] next
1252.6

Same again, this time with CCOP(=O)([O-])OCC.CCn1cc[n+](C)c1 [1-ethyl-3-methylimidazolium diethyl phosphate]
1148.86

Hey, quick one: what's mass density for each of these?
1. CCCCOP(=O)([O-])OCCCC.CCCCn1cc[n+](C)c1 [1-butyl-3-methylimidazolium dibutyl phosphate]
2. CCOP(=O)([O-])OCC.CCn1cc[n+](CC)c1 [1,3-diethyl-1H-imidazol-3-ium diethyl phosphate]
3. CCO
4. CO

1. 1046.18
2. 1125.96
3. 785.83
4. 786.55
